The values you see were collected from patent US7109015B2.

- Test system: Met-tagged onconase
- EXPERIMENT SUMMARY: In vivo catalytic activity of MetAPs co-expressed with Met-tagged onconase in E. coli BL21(DE3); N-terminus by Edman degradation
- Type: cell-based
- SETUP CONDITIONS: substrate MQD-Onc, in vivo in E. coli
// reported Catalytic activity (%): removal of N-terminal Met for each item listed
Provide the reading as a plain figure in %.

Worked examples, 3 molecules total:
MetAP-M206T: E. coli MetAP with Met206 replaced by Thr (protein, UniProt P0AE18 2-264, looked up, variant M206T) Methionine aminopeptidase: AISIKTPEDIEKMRVAGRLAAEVLEMIEPYVKPGVSTGELDRICNDYIVNEQHAVSACLGYHGYPKSVCISINEVVCHGIPDDAKLLKDGDIVNIDVTVIKDGFHGDTSKMFIVGKPTIMGERLCRITQESLYLALRMVKPGINLREIGAAIQKFVEAEGFSVVREYCGHGIGRGFHEEPQVLHYDSRETNVVLKPGMTFTIEPTVNAGKKEIRTMKDGWTVKTKDRSLSAQYEHTIVVTDNGCEILTLRKDDTIPAIISHDE :: 86
MetAP-M206V: E. coli MetAP with Met206 replaced by Val (protein, UniProt P0AE18 2-264, looked up, variant M206V) Methionine aminopeptidase: AISIKTPEDIEKMRVAGRLAAEVLEMIEPYVKPGVSTGELDRICNDYIVNEQHAVSACLGYHGYPKSVCISINEVVCHGIPDDAKLLKDGDIVNIDVTVIKDGFHGDTSKMFIVGKPTIMGERLCRITQESLYLALRMVKPGINLREIGAAIQKFVEAEGFSVVREYCGHGIGRGFHEEPQVLHYDSRETNVVLKPGMTFTIEPVVNAGKKEIRTMKDGWTVKTKDRSLSAQYEHTIVVTDNGCEILTLRKDDTIPAIISHDE :: 61
MetAP-M206G: E. coli MetAP with Met206 replaced by Gly (protein, UniProt P0AE18 2-264, looked up, variant M206G) Methionine aminopeptidase: AISIKTPEDIEKMRVAGRLAAEVLEMIEPYVKPGVSTGELDRICNDYIVNEQHAVSACLGYHGYPKSVCISINEVVCHGIPDDAKLLKDGDIVNIDVTVIKDGFHGDTSKMFIVGKPTIMGERLCRITQESLYLALRMVKPGINLREIGAAIQKFVEAEGFSVVREYCGHGIGRGFHEEPQVLHYDSRETNVVLKPGMTFTIEPGVNAGKKEIRTMKDGWTVKTKDRSLSAQYEHTIVVTDNGCEILTLRKDDTIPAIISHDE :: 85

Now turn to the next molecule.
stdin: Find the recorded Catalytic activity (%): removal of N-terminal Met belonging to MetAP-*GG (protein) AISIKTPEDIEKMRVAGRLAAEVLEMIEPYVKPGVSTGELDRICNDYIVNEQHAVSACLGYHGYPKSVCISINEVVCHGIPDDAKLLKDGDIVNIDVTVIKDGFHGDTSKMFIVGKPTIMGERLCRITQESLYLALRMVKPGINLREIGAAIQKFVEAEGFSVVREYCGHGIGRGFHEEPQVLHYDSRETNVVLKPGMTFTIEPGVNAGKKEIRTMKDGWTVKTKDRSLSAGYEHTIVVTDNGCEILTLRKDDTIPAIISHDE and report it.
stdout: 96
